- tgt: Matrix metalloproteinase-9 (Homo sapiens, UniProt P14780)
- Sequence (P14780 whole entry): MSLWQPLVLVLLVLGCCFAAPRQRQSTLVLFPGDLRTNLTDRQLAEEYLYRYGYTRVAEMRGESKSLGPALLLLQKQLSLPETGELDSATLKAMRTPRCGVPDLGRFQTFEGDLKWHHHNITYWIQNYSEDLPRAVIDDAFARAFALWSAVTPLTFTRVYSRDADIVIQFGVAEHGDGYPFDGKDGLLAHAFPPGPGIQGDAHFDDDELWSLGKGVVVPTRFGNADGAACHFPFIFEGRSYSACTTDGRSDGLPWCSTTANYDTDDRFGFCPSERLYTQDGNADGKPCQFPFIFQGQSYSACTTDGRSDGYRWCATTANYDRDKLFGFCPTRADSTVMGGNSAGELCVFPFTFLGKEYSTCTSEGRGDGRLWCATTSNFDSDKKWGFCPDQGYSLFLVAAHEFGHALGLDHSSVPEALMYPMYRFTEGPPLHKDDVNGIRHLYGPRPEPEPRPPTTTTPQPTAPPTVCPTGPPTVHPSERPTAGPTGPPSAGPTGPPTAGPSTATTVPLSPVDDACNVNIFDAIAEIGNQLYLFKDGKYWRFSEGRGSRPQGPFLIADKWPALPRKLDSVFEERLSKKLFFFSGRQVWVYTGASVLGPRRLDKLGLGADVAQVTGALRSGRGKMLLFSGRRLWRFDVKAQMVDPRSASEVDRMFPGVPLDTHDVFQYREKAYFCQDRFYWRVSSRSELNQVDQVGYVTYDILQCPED
Exercise: state measured IC50 for each of the compounds provided.

Query: Look up IC50 for this compound: Cc1ccc(-c2cc(/C=C3\SC(=S)N(CC(=O)O)C3=O)no2)cc1
Response: > 100 µM

Query: What do you have for Cc1nc(-c2ccccc2)c(/C=C2\SC(=S)N(CC(=O)O)C2=O)s1 ?
Response: > 100 µM

Query: Let us now turn to O=C(O)CN1C(=O)/C(=C/c2c[nH]c3ccc(Br)cc23)SC1=S
Response: > 100 µM

Query: Repeat with O=C(O)CN1C(=O)/C(=C/c2cc(-c3ccc(F)cc3)on2)SC1=S
Response: > 100 µM

Query: Now give it for Cc1nc(/C=C2\SC(=S)N(CC(=O)O)C2=O)c(C)o1 too.
Response: > 100 µM

Query: Item: O=C(O)CN1C(=O)/C(=C/c2cc(-c3ccc(Br)cc3)on2)SC1=S
Response: 27.4 µM

Query: What do you get for O=C(O)CN1C(=O)/C(=C/c2cc(-c3ccccc3)on2)SC1=S ?
Response: 50 µM

Measured values drawn from BindingDB's records for doi:10.1111/j.1747-0285.2007.00617.x for this set.
